assay_target: human NAAA (Homo sapiens)
Construct: made in house; host or cells: HEK293 cells, stably transfected; soluble lysosomal fraction used as enzyme source
Sequence (Q02083 29-359): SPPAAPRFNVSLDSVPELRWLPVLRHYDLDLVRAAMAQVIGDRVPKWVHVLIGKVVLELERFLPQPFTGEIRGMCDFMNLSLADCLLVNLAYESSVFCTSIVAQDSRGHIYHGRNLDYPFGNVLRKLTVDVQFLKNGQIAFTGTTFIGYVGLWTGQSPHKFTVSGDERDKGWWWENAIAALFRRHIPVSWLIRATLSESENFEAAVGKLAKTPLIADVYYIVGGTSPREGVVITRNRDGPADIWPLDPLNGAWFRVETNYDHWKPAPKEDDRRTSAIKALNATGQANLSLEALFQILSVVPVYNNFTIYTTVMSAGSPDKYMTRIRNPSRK
test: Fluorogenic h-NAAA assay
Assay type: biochemical
assay_conditions: @ 2.5 μM; read-out: h-NAAA Fluorogenic assay % inhib.
Quick rule for you: inhibition at […] at 40% or higher means yes, lower means no.

C[C@@H]1NC(=O)[C@@H]1NC(=O)OCc1ccc(-c2ccccc2)cc1 [Example 84]	no
O=C(N[C@H]1CNC1=O)OCc1ccc(C(=O)N2CCCCC2)cc1 [Example 69]	no

IN: Does the compound O=C(N[C@H]1CNC1=O)OCc1ccc(C(=O)NC2CCCCC2)cc1 [Example 68] have recorded inhibition at […] that is 40% or more?
OUT: no

IN: Then what about the compound O=C(N[C@H]1CNC1=O)OCCCc1ccccc1 [Example 27] ?
OUT: yes

IN: Then what about the compound O=C(N[C@H]1CNC1=O)OCc1ccc(OC2CC3CCC2C3)cc1 (mixture of isomers) [Example 102] ?
OUT: yes

IN: Then what about the compound O=C(N[C@H]1CNC1=O)OCC1CCC(F)(F)CC1 [Example 99] ?
OUT: no

IN: Then what about the compound O=C(N[C@H]1CNC1=O)OCc1ccc(I)cc1 [Example 101] ?
OUT: yes

IN: Then what about the compound O=C(N[C@H]1CNC1=O)OCc1cnc(-c2ccccc2)nc1 [Example 98] ?
OUT: no

IN: Then what about the compound O=C(N[C@H]1CNC1=O)OCc1ccc(-c2ccccc2)nc1 [Example 67] ?
OUT: yes

IN: Then what about the compound O=C(N[C@H]1CNC1=O)OCCCOC1CCCCC1 [Example 50] ?
OUT: no

Cited source: patent US9828338B2
